Biological target: PDGF-BB (Homo sapiens, UniProt P01127 82-190)
Sequence (P01127 82-190): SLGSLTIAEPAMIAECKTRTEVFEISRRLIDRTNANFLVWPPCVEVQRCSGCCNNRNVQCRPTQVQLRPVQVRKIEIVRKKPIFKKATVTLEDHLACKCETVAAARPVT
Assay: FCS; 1 mg/mL BSA; 1 mM Mg2+ in folding buffer; titration regime; PBS pH 7.4; aptamer folded in PBS with 5 mM MgCl2 (1 mM for AS1411 and 36t), 90 C 2 min then cooled; final buffer not detailed; overnight at room temperature; 100 pM aptamer (1 nM for serum proteins)
Settings: protein: commercial; chain copies: 2; label: 5'-atto633
METRIC: Kd

binder="CACAGGCTACGGCACGTAGAGCATCACCATGATCCTGTG (structured_DNA) [36t]" metric=Kd result="< 1 nM"
